System: rats
Procedure: Adult male Sprague-Dawley rats (250-300 g) were selected for the experiment. […] The anesthesia effects of the compounds were assessed in rats using a LORR assay and a period >30 s was considered as an indicator of general anesthesia. Then the up and down method was used to determine 50% effective dose (ED50). The drugs were administered through the tail vein of rats in a volume of 0.6 mL and at a rate of 0.1 mL/s.
Would you kindly list Approximate therapeutic index for each of these compounds?

Qu. Report the value of Approximate therapeutic index obtained on rats for CC#CC1(OC(=O)c2cncn2[C@H](C)c2ccccc2)COC1 .
Ans. >15

Qu. Report the value of Approximate therapeutic index obtained on rats for C#CC(C)(C)OC(=O)c1c(F)ncn1[C@H](C)c1ccccc1 .
Ans. >24

Qu. Report the value of Approximate therapeutic index obtained on rats for C=C(C)CC1(OC(=O)c2cncn2[C@H](C)c2ccccc2)CCC1 .
Ans. >10

Qu. Report the value of Approximate therapeutic index obtained on rats for CC#CC1(OC(=O)c2c(F)ncn2[C@H](C)c2ccccc2)CSC1 .
Ans. >6

Qu. Report the value of Approximate therapeutic index obtained on rats for CC#CC(C)OC(=O)c1c(F)ncn1[C@H](C)c1ccccc1 (stereo partly drawn) .
Ans. >20

Qu. Report the value of Approximate therapeutic index obtained on rats for CC#CCOC(=O)c1cncn1[C@H](C)c1ccccc1 .
Ans. >12

Qu. Report the value of Approximate therapeutic index obtained on rats for CC#CC(C)OC(=O)c1c(Cl)ncn1[C@H](C)c1ccccc1 (stereo partly drawn) .
Ans. >16

Qu. Report the value of Approximate therapeutic index obtained on rats for C=C=CC1(OC(=O)c2cncn2[C@H](C)c2ccccc2)COC1 .
Ans. >16

Qu. Report the value of Approximate therapeutic index obtained on rats for CCC#CC(C)OC(=O)c1cncn1[C@H](C)c1ccccc1 (stereo partly drawn) .
Ans. >15

====

tested on: secretion of cortisol, H295R cell line; experiment: cells; assay type: cell-based; conditions: H295R cell line; 0.1-10000 nM; HPLC-MS/MS; Table D3
property: Cortisol as an indicator to determine the presence of inhibition
Just the number, please, no unit after it.

Qu. Please supply the value of reported Cortisol as an indicator to determine the presence of inhibition for the item CC#CC1(OC(=O)c2cncn2[C@H](C)c2ccccc2)COC1 [Compound D39]
Ans. 0

Qu. Please supply the value of reported Cortisol as an indicator to determine the presence of inhibition for the item CCOC(=O)c1cncn1[C@H](C)c1ccccc1 [Etomidate, reference compound]
Ans. 2

Qu. Please supply the value of reported Cortisol as an indicator to determine the presence of inhibition for the item C=CC1(OC(=O)c2cncn2[C@H](C)c2ccccc2)CCCCC1 [Compound D35]
Ans. 0

Qu. Please supply the value of reported Cortisol as an indicator to determine the presence of inhibition for the item C=C(OCC)C1(OC(=O)c2cncn2[C@H](C)c2ccccc2)COC1 [Compound D2]
Ans. 0

Qu. Please supply the value of reported Cortisol as an indicator to determine the presence of inhibition for the item C[C@H](c1ccccc1)n1cncc1C(=O)OC(C)(C)C#CC#CC(C)(C)O [Compound D38]
Ans. 0

Qu. Please supply the value of reported Cortisol as an indicator to determine the presence of inhibition for the item CC#CCOC(=O)c1cncn1[C@H](C)c1ccccc1 [Compound D18]
Ans. 0

Qu. Please supply the value of reported Cortisol as an indicator to determine the presence of inhibition for the item C=C=CC1(OC(=O)c2cncn2[C@H](C)c2ccccc2)COC1 [Compound D21]
Ans. 0

Qu. Please supply the value of reported Cortisol as an indicator to determine the presence of inhibition for the item COC(=O)C1(OC(=O)c2cncn2[C@H](C)c2ccccc2)CC1 [CPMM, cyclopropyl methoxycarbonyl methylate, reference compound]
Ans. 1
